# EXPERIMENT_NOTES: label from the status in PepcDB records
MEASURED_QUANTITY: protein production

1. MEKRLDYITDLMALGPTANARTIQRRQTAHRLAIAEAWQVKPGEKILEIGCGQGDLSAVLADQVGSSGHVTGIDIASPDYGAPLTLGQAWNHLLAGPLGDRLTVHFNTNLSDDLGPIADQHFDRVVLAHSLWYFASANALALLFKNMAAVCDHVDVAEWSMQPTALDQIGHLQAAMIQGLLYAIAPSDVANIRTLITPDTLAQIAHDNTWTYTAGTIVEDPTLDDAHWEIATTNALLTELKLSTDLRDRVKPLLEAMSHNGTASLATFTGRITF	not failed
2. MNKEVDLSVSCLGKVKELKYDVIILPWGATEPHNLHLPYLTDCILPHDIAVEAAELALSRSGVRCMVMPPVPFGAHNPGQRELPFCIHTRYATQQAILEDIVSSLHVQGFRKLLILSGHGGNNFKGMIRDLAFEYPDFLIAAANWFEVVSPKGYFEAEIDDHAGESETSVMMHYHPELVNLAEAGDGESKPFAIASLNEKVAWVPRHWDKATVDSGVGNPKKATAEKGERYVKPIVEKLAGLFEEMAQHDLYE	not failed

----------
# EXPERIMENT_NOTES: label from the status in PepcDB records
MEASURED_QUANTITY: protein production

// solved cases for protein production follow
1. MLIYGLARLLLFVVLTLIIHSLALLISAPVPLVMSAMLALIVAFPLSMLVFSKLRMNATQAVSQWDAQRKAHKEWVRSELADR	failed
2. MIEKVYEFKRDAKTKVVEKLVNTEHVQINHIVLPRGEQMPKHYSNSYVHLIIIKGEMTLTLEDQEPHNYKEGNIVYVPFNVKMLIQNINSDILEFFVVKAPHPKKLNAPEDPIKCE	not failed
3. MDDETLRLQFGHLIRILPTLLEFEKKGYEPSLAEIVKASGVSEKTFFMGLKDRLIRAGLVKEETLSYRVKTLKLTEKGRRLAECLEKCRDVLGS	not failed
4. MILTYHNMYYYQNESRDIAAALLIMTLAFFILLNGLGFYGLLSLIYLAIAFLVVVTAFLFHELAHRAVARRLGAVAFFKLWPIGAFLALITSLFHFLFAAPGAVEFAGVYDNESQGKIALAGPATNIIIGIITYILSIFSLGIVHYVLYYVGALNLWFALFNMIPIPPLDGSKVFYWKGSIFAGVFVFTIIMNIVDGFLLHII	failed
5. ADGILVVDLKGNIEFCNQQFLKMWGIAPGFIDSHNDTETIQYVLNQLKNPEEFLKQIKELYNNPKQESFDELHFKDGKIFERYSQPHWLDN	failed

Now look at this one.
If you can, please state the reported protein production value of MILVPIDISDKEFTERIISHVESEARIDDAEVHFLTVIPSLPYYASLGMAYTAELPGMDELREGSETQLKEIAKKFSIPEDRMHFHVAEGSPKDKILALAKSLPADLVIIASHRPDITTYLLGSNAAAVVRHAECSVLVVR .
not failed

----------
# EXPERIMENT_NOTES: label from the status in PepcDB records
MEASURED_QUANTITY: protein production

1. MSLTHVIWDMGETLNTVPNTRYDHHPLDTYPEVVLRKNAKETLEKVKQLGFKQAILSNTATSDTEVIKRVLTNFGIIDYFDFIYASNSELQPGKMEKPDKTIFDFTLNALQIDKTEAVMVGNTFESDIIGANRAGIHAIWLQNPEVCLQDERLPLVAPPFVIPVWDLADVPEALLLLKKISEGHHHHHH	not failed
2. MIKAILIFNNHGKPRLCKFYQHYSEDTQQQIIRETFHLVSKRDENVCNFLEGGLLIGGSDNKLIYRHYATLYFVFCVDSSESELGILDLIQVFVETLDKCFENVCELDLIFHVDKVHNILAEMVMGGMVLETNMNEIVTQIDA	not failed

Recorded values, source a protein production outcome set (Wang et al. 2014).
